The measurements presented in this section are drawn from patent US8058442B2.

test-name: n-octanol/water shake-flask distribution coefficient
Format: physicochemical
applied-conditions: distribution ratio D = Corg/Caq, 0.01N HCl

compound	D in 0.01N HCl
CCOC(=O)C(Cc1ccc(O)c2ncccc12)(NC(C)=O)C(=O)OCC	0.043
C#CCN1CCN(Cc2ccc(O)c3ncccc23)CC1 [HLA20]	0.025
NC(Cc1ccc(O)c2ncccc12)C(=O)O (racemic) [HLM8, DL-3-(8-hydroxyquinolin-5-yl)alanine]	0.0031
CCOC(=O)N1CCN(Cc2ccc(O)c3ncccc23)CC1 [HLA16]	0.018

----------
System: human erythroleukemia K562 cells
test-name: Iron permeation of the chelators into calcein-loaded K562 cells
Format: cell-based
applied-conditions: FIG. 2B; 5 μM chelator, 37° C.
Listing of recorded half maximal time by entry.
measure: half maximal time (s)

compound	study-target	reported-measurement
C#CCN1CCN(Cc2ccc(O)c3ncccc23)CC1	human erythroleukemia K562 cells	390
N[C@@H](Cc1ccc(O)c2ncccc12)C(=O)O [Compound M10, L-3-(8-hydroxyquinolin-5-yl)alanine]	human erythroleukemia K562 cells	1050
CCOC(=O)N1CCN(Cc2ccc(O)c3ncccc23)CC1	human erythroleukemia K562 cells	220
OCCN1CCN(Cc2ccc(O)c3ncccc23)CC1 [VK-28, reference compound]	human erythroleukemia K562 cells	1250

----------
study-target: rat brain MAO-A (Rattus norvegicus)
Sequence (P21396 1-526): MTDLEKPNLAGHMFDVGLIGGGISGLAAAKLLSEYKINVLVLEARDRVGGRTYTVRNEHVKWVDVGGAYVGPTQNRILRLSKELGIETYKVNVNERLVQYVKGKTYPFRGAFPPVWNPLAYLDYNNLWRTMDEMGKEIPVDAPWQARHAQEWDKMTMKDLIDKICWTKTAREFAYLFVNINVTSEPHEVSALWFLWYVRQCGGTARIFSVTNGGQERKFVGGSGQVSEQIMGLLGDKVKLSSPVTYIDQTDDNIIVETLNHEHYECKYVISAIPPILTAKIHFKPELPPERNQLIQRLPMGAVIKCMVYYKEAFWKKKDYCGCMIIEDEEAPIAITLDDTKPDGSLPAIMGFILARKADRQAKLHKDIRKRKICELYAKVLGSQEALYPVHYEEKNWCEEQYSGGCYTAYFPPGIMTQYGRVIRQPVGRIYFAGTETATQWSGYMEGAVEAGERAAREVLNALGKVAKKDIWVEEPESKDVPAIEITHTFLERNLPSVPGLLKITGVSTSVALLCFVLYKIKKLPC
measure: IC50 (µM)

molecule	study-target	measure	reported-measurement
C#CCN [Propargylamine, propargylamine, reference compound]	rat brain MAO-A (Rattus norvegicus)	IC50	66.3

----------
test-name: n-octanol/water shake-flask distribution coefficient
Format: physicochemical
applied-conditions: H2O; read-out: LogD in H2O
Listing of recorded logD by entry.

compound	logD
C#CCN1CCN(Cc2ccc(O)c3ncccc23)CC1 [HLA20]	1.57
CCOC(=O)C(Cc1ccc(O)c2ncccc12)(NC(C)=O)C(=O)OCC	2.19

----------
test-name: n-octanol/water shake-flask distribution coefficient
Format: physicochemical
applied-conditions: pH 12
Listing of recorded logD by entry.

compound	logD
CCOC(=O)C(N)Cc1ccc(O)c2ncccc12 (racemic)	< -2
CCOC(=O)N1CCN(Cc2ccc(O)c3ncccc23)CC1	0.39
NC(Cc1ccc(O)c2ncccc12)C(=O)O (racemic) [HLM8, DL-3-(8-hydroxyquinolin-5-yl)alanine]	-1.7

----------
Listing of recorded logD by entry.
test-name: n-octanol/water shake-flask distribution coefficient
Type: physicochemical
applied-conditions: pH 12; 0.01N NaOH; read-out: LogD in 0.01N NaOH
measure: logD

compound	reported-measurement
CCOC(=O)C(Cc1ccc(O)c2ncccc12)(NC(C)=O)C(=O)OCC	-1.01
C#CCN1CCN(Cc2ccc(O)c3ncccc23)CC1 [HLA20]	-0.16

----------
Test system: human erythroleukemia K562 cells
test-name: Iron permeation of the chelators into calcein-loaded K562 cells
Format: cell-based
applied-conditions: FIG. 2A; 5 μM chelator, 37° C.
Please respond with Met when measured half maximal time is strictly beneath 200 s, and with Not met in all other cases.

compound	cat
C#CCN1CCN(Cc2ccc(O)c3ncccc23)CC1 [HLA20]	Met
CCOC(=O)N1CCN(Cc2ccc(O)c3ncccc23)CC1 [HLA16]	Not met
NC(Cc1ccc(O)c2ncccc12)C(=O)O (racemic) [HLM8, DL-3-(8-hydroxyquinolin-5-yl)alanine]	Not met
O=C(NN=Cc1ccccc1O)c1ccncc1 [SIH, salicylaldehyde isonicotinoyl hydrazone, reference compound]	Met

----------
test-name: n-octanol/water shake-flask distribution coefficient
Assay type: physicochemical
applied-conditions: distribution ratio D = Corg/Caq, 0.01N NaOH
Please respond with True when measured D in 0.01N NaOH is strictly beneath 0.02, and with False in all other cases.

compound	cat
C#CCN1CCN(Cc2ccc(O)c3ncccc23)CC1	False
CCOC(=O)C(Cc1ccc(O)c2ncccc12)(NC(C)=O)C(=O)OCC	False
CCOC(=O)C(N)Cc1ccc(O)c2ncccc12 (racemic)	True
CCOC(=O)N1CCN(Cc2ccc(O)c3ncccc23)CC1	False

----------
test-name: n-octanol/water shake-flask distribution coefficient
Format: physicochemical
applied-conditions: pH 2; 0.01N HCl; read-out: LogD in 0.01N HCl
measure: logD

smiles-input	measure	reported-measurement
CCOC(=O)C(Cc1ccc(O)c2ncccc12)(NC(C)=O)C(=O)OCC	logD	-1.37
C#CCN1CCN(Cc2ccc(O)c3ncccc23)CC1	logD	-1.6

----------
test-name: n-octanol/water shake-flask distribution coefficient
Type: physicochemical
applied-conditions: distribution ratio D = Corg/Caq, H2O
// label = rule met if D in H2O is not less than 0.02, otherwise rule not met

compound	cat
CCOC(=O)C(N)Cc1ccc(O)c2ncccc12 (racemic)	rule not met
NC(Cc1ccc(O)c2ncccc12)C(=O)O (racemic) [HLM8, DL-3-(8-hydroxyquinolin-5-yl)alanine]	rule not met
CCOC(=O)C(Cc1ccc(O)c2ncccc12)(NC(C)=O)C(=O)OCC	rule met
C#CCN1CCN(Cc2ccc(O)c3ncccc23)CC1	rule met
CCOC(=O)N1CCN(Cc2ccc(O)c3ncccc23)CC1	rule met

----------
study-target: rat brain MAO-B (Rattus norvegicus)
Sequence (P19643 1-520): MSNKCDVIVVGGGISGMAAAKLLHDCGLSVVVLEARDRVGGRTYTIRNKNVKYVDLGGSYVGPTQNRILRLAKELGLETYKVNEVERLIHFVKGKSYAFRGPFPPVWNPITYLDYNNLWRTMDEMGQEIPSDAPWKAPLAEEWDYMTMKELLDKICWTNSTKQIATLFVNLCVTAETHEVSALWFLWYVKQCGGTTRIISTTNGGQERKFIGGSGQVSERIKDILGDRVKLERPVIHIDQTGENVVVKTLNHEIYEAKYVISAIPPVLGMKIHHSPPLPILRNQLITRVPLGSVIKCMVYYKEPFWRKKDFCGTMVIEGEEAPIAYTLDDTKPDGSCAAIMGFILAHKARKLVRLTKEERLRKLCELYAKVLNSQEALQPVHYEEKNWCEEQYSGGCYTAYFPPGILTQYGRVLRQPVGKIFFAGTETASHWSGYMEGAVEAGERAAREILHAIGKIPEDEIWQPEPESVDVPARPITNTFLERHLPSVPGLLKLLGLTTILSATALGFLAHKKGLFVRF

compound	IC50 (µM)
C#CCN [Propargylamine, propargylamine, reference compound]	10.1
